The reported measurements were obtained from patent US12060408B2.

target: RAGE (Mus musculus, UniProt Q62151); construct: in murine SVEC that are endogenously replete in RAGE expression; host or cells: Svec4-10 mouse endothelial cells; assay: Ang II-induced ICAM-1 gene expression in murine SVEC; assay type: cell-based; settings: murine SVEC endogenously replete in RAGE; transfected constructs; 1 μM Ang II; FIG. 12A, 12B, 12D
Sequence (Q62151 23-402): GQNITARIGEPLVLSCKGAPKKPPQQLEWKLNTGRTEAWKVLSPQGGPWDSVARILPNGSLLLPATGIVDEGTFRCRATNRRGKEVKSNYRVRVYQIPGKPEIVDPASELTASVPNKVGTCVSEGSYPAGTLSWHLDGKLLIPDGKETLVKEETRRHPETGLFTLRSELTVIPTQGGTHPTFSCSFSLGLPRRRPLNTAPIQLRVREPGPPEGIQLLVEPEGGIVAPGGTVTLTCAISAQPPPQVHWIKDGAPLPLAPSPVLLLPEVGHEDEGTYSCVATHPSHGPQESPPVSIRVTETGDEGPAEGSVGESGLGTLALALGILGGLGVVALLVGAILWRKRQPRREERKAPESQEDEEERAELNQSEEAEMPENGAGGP
measure name: induction of ICAM-1 gene expression by Ang II

[
  {
    "substance": "Q379A-RAGE370-390: glutamine-to-alanine mutant of RAGE370-390 (GEERKAPENAEEEEERAELNQ; cytosolic tail peptide; UniProt Q15109 370-390, looked up, variant Q379A)",
    "result value": "lost"
  },
  {
    "substance": "Q390A-RAGE370-390: glutamine-to-alanine mutant of RAGE370-390 (GEERKAPENQEEEEERAELNA; cytoplasmic region peptide; UniProt Q15109 370-390, looked up, variant Q390A)",
    "result value": "lost"
  }
]
